Collected molar heat capacity at constant pressure values appear next to each entry.
- assay: molar heat capacity at constant pressure
- details: 240 K; 101.33 kPa; Crystal; relaxation calorimetry
Response body: numeric value in J/K/mol, unit text excluded.

[ask] Return value of molar heat capacity at constant pressure for input OC[C@H](O)C(O)[C@@H](O)CO [L-(-)-arabitol] , no commentary.
[reply] 166.8

[ask] Return value of molar heat capacity at constant pressure for input OC[C@@H](O)[C@@H](O)CO [meso-1,2,3,4-butanetetrol] , no commentary.
[reply] 135.27

[ask] Return value of molar heat capacity at constant pressure for input OC[C@@H](O)[C@H](O)[C@@H](O)CO [xylitol] , no commentary.
[reply] 167.6

[ask] Return value of molar heat capacity at constant pressure for input OC[C@@H](O)C(O)[C@H](O)CO [D-arabitol] , no commentary.
[reply] 164.59

[ask] Return value of molar heat capacity at constant pressure for input OC[C@@H](O)[C@@H](O)[C@H](O)[C@H](O)CO [D-mannitol] , no commentary.
[reply] 188.14

Lab note: next compound to report on.
[ask] Return value of molar heat capacity at constant pressure for input O[C@H]1[C@H](O)[C@@H](O)[C@H](O)[C@@H](O)[C@H]1O [cis-1,2,3,5-trans-4,6-cyclohexanehexol] , no commentary.
[reply] 174.63

----------
- assay: molar heat capacity at constant pressure
- details: 328.15 K; 101.33 kPa; Crystal; Small sample (50 mg) DSC
Collected molar heat capacity at constant pressure values appear next to each entry.
Response body: numeric value in J/K/mol, unit text excluded.

Answered examples (5):
[ask] Return value of molar heat capacity at constant pressure for input OC[C@@H](O)[C@@H](O)[C@H](O)[C@H](O)CO , no commentary.
[reply] 257.61

[ask] Return value of molar heat capacity at constant pressure for input OC[C@@H](O)C(O)[C@H](O)CO , no commentary.
[reply] 227.57

[ask] Return value of molar heat capacity at constant pressure for input OC[C@@H](O)[C@@H](O)CO , no commentary.
[reply] 183.34

[ask] Return value of molar heat capacity at constant pressure for input OC[C@@H](O)[C@H](O)[C@@H](O)CO , no commentary.
[reply] 234.91

[ask] Return value of molar heat capacity at constant pressure for input O[C@H]1[C@H](O)[C@@H](O)[C@H](O)[C@@H](O)[C@H]1O [cis-1,2,3,5-trans-4,6-cyclohexanehexol] , no commentary.
[reply] 244.59

Lab note: next compound to report on.
[ask] Return value of molar heat capacity at constant pressure for input OC[C@H](O)C(O)[C@@H](O)CO [L-(-)-arabitol] , no commentary.
[reply] 235.6

----------
- assay: molar heat capacity at constant pressure
- details: 271.15 K; 101.33 kPa; Crystal; Small sample (50 mg) DSC
Collected molar heat capacity at constant pressure values appear next to each entry.
Response body: numeric value in J/K/mol, unit text excluded.

[ask] Return value of molar heat capacity at constant pressure for input OC[C@@H](O)C(O)[C@H](O)CO , no commentary.
[reply] 181.55

[ask] Return value of molar heat capacity at constant pressure for input O[C@H]1[C@H](O)[C@@H](O)[C@H](O)[C@@H](O)[C@H]1O [cis-1,2,3,5-trans-4,6-cyclohexanehexol] , no commentary.
[reply] 197.16

Continuing:
[ask] Return value of molar heat capacity at constant pressure for input OC[C@@H](O)[C@H](O)[C@@H](O)CO , no commentary.
[reply] 189.44

[ask] Return value of molar heat capacity at constant pressure for input OC[C@H](O)C(O)[C@@H](O)CO [L-(-)-arabitol] , no commentary.
[reply] 189.06

[ask] Return value of molar heat capacity at constant pressure for input OC[C@@H](O)[C@@H](O)CO , no commentary.
[reply] 149.59

[ask] Return value of molar heat capacity at constant pressure for input OC[C@@H](O)[C@@H](O)[C@H](O)[C@H](O)CO , no commentary.
[reply] 210.37

The values you see were collected from the NIST ThermoML archive (doi:10.1016/j.jct.2017.08.004).
